System: normal primary NK cells, pool 1 (3 donors) (IL-2 2.5 ng/mL);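 note: normalised to DMSO-only wells as negative and benzethonium chloride as positive control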
Experiment: percent inhibition of viability; higher = more inhibition
Conditions: 72 h; 2500 nM
Recorded Metric: percent inhibition of viability (%)
Express your answer in %, writing the number without its unit.

Kindly note: normal primary NK cells, pool 1 (3 donors) (IL-2 2.5 ng/mL), CN1CCN(C2CCN(C(=O)Nc3cc(Oc4ccc(NC(=O)C5(C(=O)Nc6ccc(F)cc6)CC5)c(F)c4)ccn3)CC2)CC1 [Golvatinib] (max concentration tested 2500 nM) , percent inhibition of viability value reported: 11.9

percent inhibition of viability value, target or system normal primary NK cells, pool 1 (3 donors) (IL-2 2.5 ng/mL), for COc1cc(C(=O)NC2CCN(C)CC2)c(F)cc1Nc1ncc2c(n1)N(C1CCCC1)CC(F)(F)C(=O)N2C [TAK-960] (max concentration tested 2500 nM) : 3.2

The compound COc1cc2nccc(Oc3ccc(NC(=O)NC4CC4)c(Cl)c3)c2cc1C(N)=O [Lenvatinib] (max concentration tested 2500 nM) , tested on normal primary NK cells, pool 1 (3 donors) (IL-2 2.5 ng/mL), showed percent inhibition of viability of 13.3

// assay normal primary NK cells, pool 1 (3 donors) (IL-2 2.5 ng/mL), entry Nc1nc(NC2CC2)cc(-c2cccc(Cl)c2Cl)n1 [TH588] (max concentration tested 25000 nM) , percent inhibition of viability value = 5.63

Tested on normal primary NK cells, pool 1 (3 donors) (IL-2 2.5 ng/mL): Cc1cc(Nc2ncc(Cl)c(Nc3ccccc3S(=O)(=O)C(C)C)n2)c(OC(C)C)cc1C1CCNCC1 [Ceritinib] (max concentration tested 2500 nM) . Observed percent inhibition of viability: 50.2

----------
Tested on: normal primary NK cells, pool 1 (3 donors), resting (IL-2 0 ng/mL);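 note: normalised to DMSO-only wells as negative and benzethonium chloride as positive control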
Test: percent inhibition of viability; higher = more inhibition
Settings: 72 h; 100 nM
Recorded Metric: percent inhibition of viability (%)
All answers are understood in %, so give the number only.

So, CN1CCc2c(c3ccccc3n2Cc2ccc(C(=O)NO)cc2)C1 [Tubastatin A] (max concentration tested 10000 nM) ? Its percent inhibition of viability was 12

Field percent inhibition of viability (entry Cc1nc(Nc2n[nH]c3c2CN(C(=O)N[C@H](CN(C)C)c2ccccc2)C3(C)C)c2sccc2n1 (max concentration tested 10000 nM) ) reads 8.53

Sure, the documented percent inhibition of viability for O=NN(CCCl)C(=O)NC1CCCCC1 [Lomustine] (max concentration tested 10000 nM) is -22.4

For COc1cc2nccc(Oc3ccc(NC(=O)C4(C(=O)Nc5ccc(F)cc5)CC4)cc3)c2cc1OC [Cabozantinib] (max concentration tested 1000 nM) the compound record lists percent inhibition of viability as -16.9

Entry O=C(c1cc(Cc2n[nH]c(=O)c3ccccc23)ccc1F)N1CCN(C(=O)C2CC2)CC1 [Olaparib] (max concentration tested 10000 nM) — recorded percent inhibition of viability = -9.9

Record summary for O=C(NOC[C@H](O)CO)c1ccc(F)c(F)c1Nc1ccc(I)cc1F (max concentration tested 1000 nM) : reported percent inhibition of viability = 6.05

----------
System: NKL (IL-2 2.5 ng/mL)
Assay: relative IC50 (inflection point of fitted viability curve, relative to fitted max inhibition); higher = less sensitive
Settings: 72 h
Recorded Metric: relative IC50

Record summary for CC(C)(C)Cn1c(N)nc2ccc(-c3[nH]c(C(C)(C)C)nc3-c3ccc(F)cc3)nc21 : reported relative IC50 = 1600 nM

Noted for CON(C)C(=O)N1N=C(c2cc(F)ccc2F)S[C@@]1(CCCN)c1ccccc1 : its relative IC50 reads 5.25 nM

response.value for O=C(Nc1c[nH]nc1-c1nc2ccc(CN3CCOCC3)cc2[nH]1)NC1CC1 (field: relative IC50) = 85.5 nM

Per the record, CNNCc1ccc(C(=O)NC(C)C)cc1 has relative IC50 of > 10000 nM

Entry under test: C[C@@H](Oc1ccc2[nH]nc(/C=C/c3cnn(CCO)c3)c2c1)c1c(Cl)cncc1Cl . Its relative IC50 was 11.9 nM
